Data origin, for the record: patent US20130109846A1

Assayed Target: human CD28 (human, UniProt P10747 19-220)
Method Description: cell-based or functional assay
Measured MLR assay (EC50) accompanies every entry in the list below.
Observable: MLR assay (EC50) (nM)

1h-239-804 (other) VL: DIQMTQSPSSLSASVGDRVTITCRASQSIYPFLEWYQQKPGKAPKLLIYFTSRLQSGVPSRFSGSGSGTDFTLTISSLQPEDFATYYCLQNVSMPATFSQGTKVEIKR ... 3
1h-239-847 (other) VL: DIQMTQSPSSLSASVGDRVTITCRASQSIYPFLEWYQQKPGKAPKLLIYFTSRLAYGVPSRFSGSGSGTDFTLTISSLQPEDFATYYCLQNVTNPATFSQGTKVEIRR ... 5
1h-79-1519 (other) VL: DIQMTQSPSSLSASVGDRVTITCRASQPIGHSLGWYQQKPGKAPKLLIYWASLLLDGVPSRFSGSGSGTDFTLTISSLQPEDFATYYCQQMLRTPFTFGQGTKVEIKR ... 37
1h-108 (other) VL: DIQMTQSPSSLSASVGDRVTITCRASQYIGTALNWYQQKPGKAPKLLIYRRSHLQSGVPSRFSGSGSGTDFTLTISSLQPEDFATYYCQQIALTPYTFGQGTKVEIKR ... 2700
